TESTED SYSTEM: human EGFR L858R (NIH/3T3 cells) (Homo sapiens, UniProt P00533, L858R)
Sequence (P00533 25-1210 L858R): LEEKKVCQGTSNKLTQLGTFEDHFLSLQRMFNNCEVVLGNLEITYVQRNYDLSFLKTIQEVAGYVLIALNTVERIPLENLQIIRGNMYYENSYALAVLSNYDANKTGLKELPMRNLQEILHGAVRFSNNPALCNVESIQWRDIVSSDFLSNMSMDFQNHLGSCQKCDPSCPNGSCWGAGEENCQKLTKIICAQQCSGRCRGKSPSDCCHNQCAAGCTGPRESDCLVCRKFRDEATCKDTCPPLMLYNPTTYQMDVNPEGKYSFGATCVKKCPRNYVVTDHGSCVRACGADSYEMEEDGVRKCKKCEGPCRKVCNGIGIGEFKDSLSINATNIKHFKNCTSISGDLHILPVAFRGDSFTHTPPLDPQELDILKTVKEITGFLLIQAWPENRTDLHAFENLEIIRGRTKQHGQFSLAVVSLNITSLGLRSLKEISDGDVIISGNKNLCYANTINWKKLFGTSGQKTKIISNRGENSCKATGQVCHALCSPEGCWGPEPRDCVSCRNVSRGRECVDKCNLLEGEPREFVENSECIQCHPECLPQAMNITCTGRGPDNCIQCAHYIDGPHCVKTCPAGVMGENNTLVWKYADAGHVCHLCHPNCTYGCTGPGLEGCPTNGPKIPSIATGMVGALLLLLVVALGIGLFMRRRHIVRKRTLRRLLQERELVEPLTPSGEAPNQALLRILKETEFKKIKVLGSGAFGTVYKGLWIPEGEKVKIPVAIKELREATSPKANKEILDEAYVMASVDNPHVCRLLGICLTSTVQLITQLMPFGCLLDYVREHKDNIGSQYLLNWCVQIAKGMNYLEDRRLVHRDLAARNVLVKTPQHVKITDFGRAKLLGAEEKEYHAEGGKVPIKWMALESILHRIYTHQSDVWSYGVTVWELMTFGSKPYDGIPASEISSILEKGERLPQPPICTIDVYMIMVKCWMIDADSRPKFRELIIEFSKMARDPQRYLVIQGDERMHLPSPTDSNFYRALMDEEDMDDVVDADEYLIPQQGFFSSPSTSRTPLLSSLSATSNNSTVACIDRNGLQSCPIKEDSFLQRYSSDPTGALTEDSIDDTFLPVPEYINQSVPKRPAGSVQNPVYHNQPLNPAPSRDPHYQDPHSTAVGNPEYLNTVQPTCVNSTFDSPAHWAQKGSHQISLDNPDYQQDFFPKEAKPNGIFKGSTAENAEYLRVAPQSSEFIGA
PROTOCOL DETAILS: EGFR target modulation in engineered NIH/3T3 cell lines (phospho-EGFR Y1068 AlphaLISA), EGFR L858R
Assay type: cell-based
RECORDED CONDITIONS: engineered NIH/3T3 cells, read-out: NIH3T3 IC50 (μM) EGFR (L858R)
ATTRIBUTE MEASURED: IC50 (µM)

Solved cases (8 shown):
C=CC(=O)N1CCCC[C@@H](n2c(NC(=O)c3ccccc3)nc3cccc(CN4CCC(O)C4)c32)C1 (stereo partly shown) | 0.002
C=CC(=O)N1CCCC[C@@H](n2c(NC(=O)c3ccnnc3)nc3cccc(OC(C)C)c32)C1 | 0.03
C=CC(=O)N1CCCC[C@@H](n2c(NC(=O)c3cc(C)nc(C)c3)nc3cc(CN4CCCC4)cc(C)c32)C1 | 0.001
COc1cccc2nc(NC(=O)c3ccnnc3)n([C@@H]3CCCCN(C(=O)/C=C/CN(C)C)C3)c12 | 0.022
C=CC(=O)N1CCCCC(n2c(NC(=O)c3cccc(C(F)(F)F)c3)nc3cccc(C)c32)C1 (stereo not shown) | 0.007
Cc1cccc2nc(NC(=O)c3ccccc3)n(C3CCCCN(C(=O)/C=C/CN(C)C)C3)c12 (stereo not shown) | 0.017
C=CC(=O)N1CCCC[C@@H](n2c(NC(=O)c3cccc(C(F)(F)F)c3)nc3cccc(C)c32)C1 (single isomer, unassigned) | 0.004
Cc1ccc(C(=O)Nc2nc3cccc(C)c3n2C2CCCCN(C(=O)/C=C/CN(C)C)C2)cn1 (stereo not shown) | 0.002

A. C=CC(=O)N1CCC[C@@H](n2c(NC(=O)c3cccc(C(F)(F)F)c3)nc3cc(CN4CCCC4)ccc32)C1
B. C=CC(=O)N1CCCCC(n2c(NC(=O)c3ccccc3)nc3cccc(-c4nc(C)no4)c32)C1 (stereo not shown)
Exam item: Between the entries labelled A and B , which has a larger IC50 value on record? State the label of the item chosen.
Marked response: B
(B: 0.45 µM, A: 0.05 µM)

1. C=CC(=O)N1CCC[C@@H](n2c(NC(=O)c3cccc(C(F)(F)F)c3)nc3cc(CN4CCOCC4)ccc32)C1
2. C=CC(=O)N1CCCC(n2c(NC(=O)c3cccc(C(F)(F)F)c3)nc3c2CN(C)CC3)C1 (stereo not shown)
Exam item: Look at 1 and 2 . Which one has the lower recorded IC50 number? State the label of the item chosen.
Marked response: 1

I. C=C(CN1CCCC1)C(=O)N1CCCC[C@@H](n2c(NC(=O)c3ccnnc3)nc3cccc(C)c32)C1
II. Cc1cccc2nc(NC(=O)c3ccnc(C(F)(F)F)c3)n([C@@H]3CCCCN(C(=O)/C=C/CN(C)C)C3)c12
III. Cc1cc(C(=O)Nc2nc3cccc(C)c3n2C2CCCCN(C(=O)/C=C/CN(C)C)C2)oc1C (stereo not shown)
IV. COc1cc(C(=O)Nc2nc3cccc(C)c3n2[C@@H]2CCCCN(C(=O)/C=C/CN(C)C)C2)ccn1
V. C=CC(=O)N1CCC[C@@H](n2c(NC(=O)c3cccc(C(F)(F)F)c3)nc3cc(C(=O)OC)ccc32)C1
Exam item: List the 5 entries from lowest IC50 to highest IC50 value. In plain terms: list the labels in the order you were asked to.
Marked response: II, IV, III, I, V
(II: 0.001 µM, IV: 0.002 µM, III: 0.02 µM, I: 0.033 µM, V: 4.7 µM)
